test: Human Plasma Protein Binding (Test B); format: in vitro ADME; details: fraction unbound (fu)
Please mark condition met if the recorded Test B Human Plasma Protein Binding (% free) is equal to or greater than 0.7 % free, and condition not met if it falls below.

Worked cases, answers included:
COc1cc(F)c(OC2CCC(C)(C(=O)O)CC2)cc1C(=O)NC1CC(OC)CC1C(=O)Nc1cccc(S(=O)(=O)C(F)(F)F)c1 (single isomer, unassigned) :: condition met
COc1cc(F)c(-c2ncc(CCC(=O)O)cn2)cc1C(=O)N[C@@H]1[C@H]2CC[C@H](C2)[C@@H]1C(=O)Nc1cccc(S(=O)(=O)C(F)(F)F)c1 :: condition met
COc1cc(F)c(C2=CCC(C(=O)O)CC2)cc1C(=O)N[C@@H]1[C@H]2CC[C@H](C2)[C@@H]1C(=O)Nc1cccc(S(=O)(=O)C(F)(F)F)c1 (mixture of isomers) :: condition not met

Okay, now this compound:
Hi, just wondering whether COc1cc(F)c(O[C@H]2CC[C@@](C)(C(=O)O)CC2)cc1C(=O)NC1C2CCC(C2)C1C(=O)Nc1cccc(S(=O)(=O)C(F)(F)F)c1 (single isomer, unassigned) shows Test B Human Plasma Protein Binding (% free) of 0.7 % free or higher.
condition not met

* * *

assay: Rat Hepatocyte Stability (Test E); assay type: in vitro ADME; details: rat, hepatocytes, geometric mean if run multiple times
Endpoint: hepatocyte CLint (µL/min/1e6 cells)
Give the value in µL/min/1e6 cells but do not write µL/min/1e6 cells after it.

COc1cc(C#N)c(O[C@H]2C[C@@](C)(C(=O)O)C2)cc1C(=O)N[C@@H]1[C@H]2CC[C@H](C2)[C@@H]1C(=O)NCC1(C)CCC1 [Example 148] :: 18
COc1cc(F)c(O[C@H]2CC[C@@H](C(=O)O)CC2)cc1C(=O)NC1=C(C(=O)Nc2ccc(F)c(C(F)(F)F)c2)CCC1 [Example 214] :: 5.3
COc1cc(F)c(O[C@H]2CC[C@@H](C(=O)O)CC2)cc1C(=O)N[C@@H]1[C@H]2CC[C@H](C2)[C@@H]1C(=O)Nc1ccc(C)c(C#N)c1 [Example 19] :: 93
COc1cc(F)c(-c2ccc(CCC(=O)O)cc2)cc1C(=O)N[C@@H]1[C@H]2CC[C@H](C2)[C@@H]1C(=O)Nc1cccc(S(=O)(=O)C(F)(F)F)c1 [Example 244] :: 36
COc1cc(F)c(O[C@H]2CC[C@@H](C(=O)O)CC2)cc1C(=O)NC1=C(C(=O)Nc2ccc(F)c(C(F)(F)F)c2)CCCC1 [Example 213] :: 8

Tell me hepatocyte CLint reported for COc1cc(F)c(O[C@H]2CC[C@@](C)(C(=O)O)CC2)cc1C(=O)N[C@@H]1[C@H]2CC[C@H](C2)[C@@H]1C(=O)Nc1ccc(F)c(S(F)(F)(F)(F)F)c1 [Example 353]
23

Provide only the value of recorded hepatocyte CLint for COc1cc(F)c(-c2ccc(CCC(=O)O)nn2)cc1C(=O)N[C@@H]1[C@H]2CC[C@H](C2)[C@@H]1C(=O)Nc1cccc(S(=O)(=O)C(F)(F)F)c1 [Example 245]
15

Please indicate hepatocyte CLint recorded for CCC(CC)[C@@H](C)NC(=O)[C@H]1[C@@H]2CC[C@@H](C2)[C@H]1NC(=O)c1cc(O[C@H]2CC[C@@](C)(C(=O)O)CC2)c(F)cc1OC (single isomer, unassigned) [Example 145]
53

Identify hepatocyte CLint associated with the compound COc1cc(F)c(-c2ccc(OC(C)(C)C(=O)O)cc2)cc1C(=O)N[C@@H]1[C@H]2CC[C@H](C2)[C@@H]1C(=O)Nc1cccc(S(=O)(=O)C(F)(F)F)c1 [Example 256]
12

State its hepatocyte CLint for this compound: CCOc1cc(F)c(O[C@H]2CC[C@@](C)(C(=O)O)CC2)cc1C(=O)N[C@@H]1[C@H]2CC[C@H](C2)[C@@H]1C(=O)NCC1(C)CCC1 [Example 385]
19

Output hepatocyte CLint of COc1cc(F)c(-c2ccc(S(N)(=O)=O)cc2)cc1C(=O)N[C@@H]1[C@H]2CC[C@H](C2)[C@@H]1C(=O)Nc1cccc(S(=O)(=O)C(F)(F)F)c1 [Example 248]
32

* * *

molecular target: human RXFP1 (Homo sapiens, UniProt Q9HBX9); assay: RXFP1 Hu cAMP (Test A); type: cell-based; set-up: expressed in transfected cells; host or cells: Jump-In T-REx CHO-K1 cells (ThermoFisher), induced with 10 ng/ml doxycycline for 24 h; details: RXFP1 Hu cAMP; read-out: Test A EC50
Sequence (Q9HBX9 whole entry): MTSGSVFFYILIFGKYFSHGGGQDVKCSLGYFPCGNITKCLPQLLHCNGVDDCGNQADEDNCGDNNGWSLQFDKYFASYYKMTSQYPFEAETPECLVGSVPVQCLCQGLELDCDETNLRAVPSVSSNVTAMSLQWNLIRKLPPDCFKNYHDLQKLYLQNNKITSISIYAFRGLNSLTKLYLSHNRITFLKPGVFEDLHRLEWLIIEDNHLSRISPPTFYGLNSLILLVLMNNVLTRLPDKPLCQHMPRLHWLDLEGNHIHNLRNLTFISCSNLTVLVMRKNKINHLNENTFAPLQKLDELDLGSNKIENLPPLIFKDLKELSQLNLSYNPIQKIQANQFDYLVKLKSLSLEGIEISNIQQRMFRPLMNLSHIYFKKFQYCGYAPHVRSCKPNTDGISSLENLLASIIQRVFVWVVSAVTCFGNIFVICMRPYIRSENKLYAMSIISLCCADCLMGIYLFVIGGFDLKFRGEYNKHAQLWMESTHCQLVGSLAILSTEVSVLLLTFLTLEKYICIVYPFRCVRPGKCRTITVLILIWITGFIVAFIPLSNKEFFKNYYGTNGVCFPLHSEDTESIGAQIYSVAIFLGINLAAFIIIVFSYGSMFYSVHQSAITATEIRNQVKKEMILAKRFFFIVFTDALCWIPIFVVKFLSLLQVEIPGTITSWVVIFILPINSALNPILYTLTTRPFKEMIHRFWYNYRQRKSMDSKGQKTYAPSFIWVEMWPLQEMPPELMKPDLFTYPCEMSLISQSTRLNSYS
This listing pairs compounds with measured EC50.
Provide only the numeric value, understood in nM.

COc1cc(F)c(O[C@H]2CC[C@@H](C(=O)O)CC2)cc1C(=O)N[C@@H]1[C@H]2CC[C@H](C2)[C@@H]1C(=O)Nc1ccc(C#N)c(Br)c1 :: 130

Please look at this compound and report its EC50: COc1cc(F)c(Oc2ccc(C(=O)O)cc2)cc1C(=O)N[C@H]1[C@@H](C(=O)Nc2cccc(S(=O)(=O)C(F)(F)F)c2)[C@@H]2C=C[C@H]1C2 (racemic)
250

* * *

We begin with a simple list: items and their reported microsomal CLint.
assay: Human Liver Microsomal Stability (Test C); type: in vitro ADME; conditions: human, liver microsomes
Write down the numeric answer in µL/min/mg and omit the unit.

Examples with answers:
COc1cc(F)c(O[C@H]2CC[C@@H](C(=O)O)CC2)cc1C(=O)N[C@@H]1CCC[C@@H]1C(=O)Nc1ccc(F)c(C(F)(F)F)c1 [Example 492] :: 36
COc1cc(F)c(O[C@H]2CC[C@@H](C(=O)O)CC2)cc1C(=O)N[C@@H]1[C@H]2CC[C@H](C2)[C@@H]1C(=O)Nc1cccc(CF)c1 [Example 11] :: 36
COc1cc(F)c(-c2ccc(C[C@@H](C(=O)O)N(C)C)cc2)cc1C(=O)N[C@@H]1[C@H]2CC[C@H](C2)[C@@H]1C(=O)Nc1cccc(S(=O)(=O)C(F)(F)F)c1 (racemic) [Example 289] :: 21
COc1cc(F)c(O[C@H]2CC[C@@H](C(=O)O)CC2)cc1C(=O)N[C@@H]1[C@H]2CC[C@H](C2)[C@@H]1C(=O)Nc1c(F)c(F)c(F)c(F)c1F [Example 16] :: 9.3

Please turn your attention to the following entry.
Give the measured microsomal CLint for COc1cc(Cl)c(O[C@H]2CC[C@@](C)(C(=O)O)CC2)cc1C(=O)N[C@@H]1[C@H]2CC[C@H](C2)[C@@H]1C(=O)NCC1(C)CCC1 [Example 392]
36

* * *

molecular target: human RXFP1 (Homo sapiens, UniProt Q9HBX9); test: RXFP1 Hu cAMP (Test A); assay type: cell-based; parameters: expressed in transfected cells; host or cells: Jump-In T-REx CHO-K1 cells (ThermoFisher), induced with 10 ng/ml doxycycline for 24 h; settings: Test A EC50, RXFP1 Hu cAMP
pEC50: −log10 of the molar value.
Threshold check on pEC50: at or above 8 gives True, strictly below gives False.

A selection of reference data follows.
COc1cc(C(F)(F)F)c(O[C@H]2CC[C@@](C)(C(=O)O)CC2)cc1C(=O)N[C@@H]1[C@H]2CC[C@H](C2)[C@@H]1C(=O)NCC1(C)CCC1 [Example 372] :: False
CC1(CNC(=O)[C@H]2[C@@H]3CC[C@@H](C3)[C@H]2NC(=O)c2cc(O[C@H]3CC[C@@](C)(C(=O)O)CC3)c(C#N)cc2F)CCC1 [Example 401] :: False
Cc1cc(F)c(O[C@H]2CC[C@@](C)(C(=O)O)CC2)cc1C(=O)N[C@@H]1[C@H]2CC[C@H](C2)[C@@H]1C(=O)NCC1(C)CCC1 [Example 5] :: False
CC1(CNC(=O)[C@H]2[C@@H]3CC[C@@H](C3)[C@H]2NC(=O)c2cc(O[C@H]3CC[C@@](C)(C(=O)O)CC3)c(F)cc2OCF)CCC1 [Example 4] :: True
COc1cc(C#N)c(OC2CCC(C)(C(=O)O)CC2)cc1C(=O)NC1C(C(=O)NCC2(C)CCC2)C2CCC1N2CCC(F)(F)F (single isomer, unassigned) [Example 536] :: True

Please check the record COc1cc(C#N)c(O[C@H]2CC[C@@](C)(C(=O)O)CC2)cc1C(=O)N[C@H]1[C@@H](C(=O)NCC2(C)CCC2)[C@H]2CC[C@@H]1N2C(=O)OC(C)(C)C (racemic) [Example 334] and state if its pEC50 is at or above 8.
True

Check if pEC50 >= 8 (inclusive). Item: COc1cc(F)c(O[C@H]2CC[C@@](C)(C(=O)O)CC2)cc1C(=O)N[C@@H]1[C@H]2CC[C@H](C2)[C@@H]1C(=O)NCC(C)(C)C [Example 35]
False

In plain terms: is recorded pEC50 at least 8 for COc1cc(F)c(O[C@H]2CC[C@@](C)(C(=O)O)CC2)cc1C(=O)N[C@@H]1[C@@H]2CC[C@@H](C2)[C@@H]1C(=O)NCC(C)(C)C [Example 370] ?
False

Would you say COc1cc(F)c(O[C@H]2CC[C@@H](C(=O)O)CC2)cc1C(=O)N[C@@H]1[C@H]2CC[C@H](C2)[C@@H]1C(=O)NCC(C)(C)C [Example 180] shows pEC50 at minimum 8?
False

Item COc1cc(F)c(O[C@H]2CC[C@@](C)(c3noc(=O)[nH]3)CC2)cc1C(=O)N[C@@H]1[C@H]2CC[C@H](C2)[C@@H]1C(=O)NCC1(C)CCC1 [Example 418] with pEC50 of 8 or above?
False
